Reported property: melting point (°C)
Numbers only, in °C.

Study these solved cases before continuing.
{"columns": ["Molecule", "Unit tag", "melting point"],
 "data": [
  ["CC(=O)Nc1nc2c(Oc3cc(N4CCN(C(C)c5ccc(F)cc5)CC4)ncn3)cccc2s1 (racemic)", "°C", 247.3],
  ["CC(=O)Nc1ccc2cccc(Oc3cc(N4CCN([C@H](C)c5ccc(F)cc5)CC4)ncn3)c2n1", "°C", 134]
]}

// each listed molecule needs a value for melting point
1. CC(c1ccc(F)cc1)N1CCN(c2cc(Oc3cccc4[nH]c(=O)ccc34)ncn2)CC1 (centres unmarked)
2. CC(c1ccc(F)cc1)N1CCN(c2cc(Oc3cccc4c(=O)[nH]ccc34)ncn2)CC1 (centres unmarked)
3. C[C@H](c1ccc(F)cc1)N1CCN(c2cc(Oc3cccc4ncc(N)nc34)ncn2)CC1
4. C[C@H](c1ccc(F)cc1)N1CCN(c2cc(Oc3cccc4c3nc(N)c(=O)n4C)ncn2)CC1

[A]
1: 242.2; 2: 249; 3: 118; 4: 256
